Entries annotated with measured protein stability index
B1: KCNA3 (parent)
chain: GERVVINISGLRFETQLKTLCQFP

Variants of: B1
method: protein stability index of a GFP-peptide fusion (GPS, HEK-293T) (PSI 1-6); higher = more stable;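 also: lentivirally expressed fusions sorted by FACS into six bins by GFP to DsRed ratio, PSI derived from sequencing read proportions per bin multiplied by bin number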
experimental-parameters: c terminus: a fixed tail appended
endpoint-label: protein stability index

- variant: "F23L"
  endpoint-result: 1.95
- variant: "L17I"
  endpoint-result: 2.92
- variant: "I6N"
  endpoint-result: 3.47
- variant: "P24G"
  endpoint-result: 2.75
- variant: "S9A"
  endpoint-result: 1.29
- variant: "V5L"
  endpoint-result: 2.29
- variant: "I8C"
  endpoint-result: 2.62
- variant: "L11S"
  endpoint-result: 1.75
- variant: "Q16T"
  endpoint-result: 1.39
- variant: "G10L"
  endpoint-result: 3.08
- variant: "V4F"
  endpoint-result: 3.43
- variant: "T19E"
  endpoint-result: 2
- variant: "Q22H"
  endpoint-result: 2.26
- variant: "V4N"
  endpoint-result: 1.64
- variant: "I6C"
  endpoint-result: 1.38
- variant: "I8V"
  endpoint-result: 1.28
- variant: "R3A"
  endpoint-result: 3.5
- variant: "Q16Y"
  endpoint-result: 2.02
- variant: "G1H"
  endpoint-result: 2.1
- variant: "I6E"
  endpoint-result: 2.52
- variant: "S9G"
  endpoint-result: 1.04
- variant: "Q22L"
  endpoint-result: 1.84
- variant: "F13G"
  endpoint-result: 2.14
- variant: "F13N"
  endpoint-result: 1.26
- variant: "T19M"
  endpoint-result: 3.15
